measurementNotes: In vivo pharmacokinetics in rats (IV and PO)
Parameters: species or system Male rats [Sprague Dawley (SD)]
measurementParameters: Sprague Dawley, plasma; male SD rat, IV 1 mg/kg; read-out: IV t1/2 (converted)
Experimental: The pharmacokinetics of compounds were studied in vivo in rats at doses of 1 mg/kg (IV) and 10 mg/kg (PO). Male rats [Sprague Dawley (SD)] surgically prepared with a jugular vein cannula were treated with experimental compounds via intravenous administration (IV; n=3; 1 mg/kg) or oral administration (PO; n=3; 10 mg/kg). […] PK parameters were calculated from the resulting data.
readoutLabel: half-life (h)
Answers are plain numbers, in h.

Hello, I would appreciate it if you could give half-life for each entry below.
1. CC(C)n1cc(-c2nn3cccnc3c2C(=O)N[C@H]2N=C(c3ccccc3)c3cccc(F)c3NC2=O)cn1
2. CS(=O)(=O)c1ccc(-c2nn3cccnc3c2C(=O)N[C@H]2N=C(c3ccccc3)c3cccc(F)c3NC2=O)c(F)c1

OUTPUT:
4.4
1.6

INPUT: What value of half-life has been recorded for this entry: O=C(N[C@H]1N=C(c2ccccc2)c2cccc(F)c2NC1=O)c1c(-c2ccc(CO)cc2F)nn2cccnc12
OUTPUT: 1.5

* * *

measurementNotes: Hepatocyte stability, rat
Type: in vitro ADME
measurementParameters: cryopreserved pooled hepatocytes, 3 μM compound, 60 min, read-out: Liver Hepatocyte Stability t1/2
readoutLabel: half-life at 3 μM (h)
Give bare numbers, in h.

These solved cases illustrate the format of a correct answer.
1. O=C(N[C@H]1N=C(c2ccccc2)c2cccc(F)c2NC1=O)c1c(-c2cccc(CO)c2F)nn2cccnc12 [Example 18] ... 1.57
2. CS(=O)(=O)c1ccc(-c2nn3cccnc3c2C(=O)N[C@H]2N=C(c3ccccc3)c3cccc(F)c3NC2=O)c(F)c1 [Example 7] ... 85.7
3. O=C(N[C@H]1N=C(c2ccccc2)c2cccc(F)c2NC1=O)c1c(-c2ccc(CO)cc2F)nn2cccnc12 [Example 1] ... 1.38

Now for the compound whose half-life at 3 μM we want.
INPUT: What value of half-life at 3 μM has been recorded for this entry: CC(C)n1cc(-c2nn3cccnc3c2C(=O)N[C@H]2N=C(c3ccccc3)c3cccc(F)c3NC2=O)cn1 [Example 4]
OUTPUT: 2.17

* * *

measurementNotes: Liver microsomal stability, rat
Assay type: in vitro ADME
measurementParameters: pooled liver microsomes, pH 7.4, 0.5 mg/mL protein, 1 μM compound, NADPH, read-out: Liver Microsomal Stability t1/2
Please provide measured half-life at 1 μM for the entries that follow.
One number for each entry, in h.

1) CCn1cc(-c2nn3cccnc3c2C(=O)N[C@H]2N=C(c3ccccc3)c3cccc(F)c3NC2=O)cn1 [Example 13] ... 7.52
2) O=C(N[C@H]1N=C(c2ccccc2)c2cccc(F)c2NC1=O)c1c(-c2cccc(CO)c2F)nn2cccnc12 [Example 18] ... 0.983

INPUT: What value of half-life at 1 μM has been recorded for this entry: CC(C)n1cc(-c2nn3cccnc3c2C(=O)N[C@H]2N=C(c3ccccc3)c3cccc(F)c3NC2=O)cn1 [Example 4]
OUTPUT: 2.63

* * *

measurementNotes: Liver microsomal stability, human
Format: in vitro ADME
measurementParameters: pooled liver microsomes, pH 7.4, 0.5 mg/mL protein, 1 μM compound, NADPH, read-out: Liver Microsomal Stability t1/2
Rule: measured half-life at 1 μM below 7 h gets Criterion met; anything equal to or greater than 7 h gets Criterion not met.

Please review the following examples before continuing.
1) CC(C)(O)c1ccc(-c2nn3cccnc3c2C(=O)N[C@H]2N=C(c3ccccc3)c3cccc(F)c3NC2=O)c(F)c1 ... Criterion met
2) CCn1cc(-c2nn3cccnc3c2C(=O)N[C@H]2N=C(c3ccccc3)c3cccc(F)c3NC2=O)cn1 ... Criterion not met
3) CC(C)n1cc(-c2nn3cccnc3c2C(=O)N[C@H]2N=C(c3ccccc3)c3cccc(F)c3NC2=O)cn1 ... Criterion met
4) O=C(N[C@H]1N=C(c2ccccc2)c2cccc(F)c2NC1=O)c1c(-c2ccc(CO)cc2F)nn2cccnc12 ... Criterion met

INPUT: Lab note: half-life at 1 μM threshold 7 h. Does this compound come in strictly under it? O=C(N[C@H]1N=C(c2ccccc2)c2cccc(F)c2NC1=O)c1c(-c2cnn(C3CCOCC3)c2)nn2cccnc12
OUTPUT: Criterion met

INPUT: Try this compound next: O=C(N[C@H]1N=C(c2ccccc2)c2cccc(F)c2NC1=O)c1c(-c2cccc(CO)c2F)nn2cccnc12
OUTPUT: Criterion not met

* * *

measurementNotes: Liver microsomal stability, rat
Type: in vitro ADME
measurementParameters: pooled liver microsomes, pH 7.4, 0.5 mg/mL protein, 1 μM compound, NADPH, read-out: Liver Microsomal Stability t1/2
Please provide measured half-life at 1 μM for the entries that follow.
Answers are plain numbers, in h.

These solved cases illustrate the format of a correct answer.
1) O=C(N[C@H]1N=C(c2ccccc2)c2cccc(F)c2NC1=O)c1c(-c2cnn(C3CCOCC3)c2)nn2cccnc12 ... 1.42
2) O=C(N[C@H]1N=C(c2ccccc2)c2cccc(F)c2NC1=O)c1c(-c2ccc(CO)cc2F)nn2cccnc12 ... 0.69
3) O=C(N[C@H]1N=C(c2ccccc2)c2cccc(F)c2NC1=O)c1c(-c2cnn(CC(F)(F)F)c2)nn2cccnc12 ... 3.48

Now for the molecule whose half-life at 1 μM we want.
INPUT: What value of half-life at 1 μM has been recorded for this entry: CC(C)(O)c1ccc(-c2nn3cccnc3c2C(=O)N[C@H]2N=C(c3ccccc3)c3cccc(F)c3NC2=O)c(F)c1
OUTPUT: 2.43

* * *

measurementNotes: Hepatocyte stability, dog
Assay type: in vitro ADME
measurementParameters: cryopreserved pooled hepatocytes, 3 μM compound, 60 min, read-out: Liver Hepatocyte Stability t1/2
readoutLabel: half-life at 3 μM (min)
Numbers only, in min.

1. O=C(N[C@H]1N=C(c2ccccc2)c2cccc(F)c2NC1=O)c1c(-c2ccc(CO)cc2F)nn2cccnc12 ... 157
2. CC(C)n1cc(-c2nn3cccnc3c2C(=O)N[C@H]2N=C(c3ccccc3)c3cccc(F)c3NC2=O)cn1 ... 84

Now for the compound whose half-life at 3 μM we want.
INPUT: What value of half-life at 3 μM has been recorded for this entry: CS(=O)(=O)c1ccc(-c2nn3cccnc3c2C(=O)N[C@H]2N=C(c3ccccc3)c3cccc(F)c3NC2=O)c(F)c1
OUTPUT: 57

* * *

Please provide measured half-life for the entries that follow.
measurementNotes: In vivo pharmacokinetics in rats (IV and PO)
Parameters: species or system Male rats [Sprague Dawley (SD)]
measurementParameters: Sprague Dawley, plasma; male SD rat, PO 10 mg/kg; read-out: PO t1/2 (converted)
Give bare numbers, in h.

These solved cases illustrate the format of a correct answer.
1. CS(=O)(=O)c1ccc(-c2nn3cccnc3c2C(=O)N[C@H]2N=C(c3ccccc3)c3cccc(F)c3NC2=O)c(F)c1 ... 2.5
2. O=C(N[C@H]1N=C(c2ccccc2)c2cccc(F)c2NC1=O)c1c(-c2ccc(CO)cc2F)nn2cccnc12 ... 3.1

INPUT: What value of half-life has been recorded for this entry: CC(C)n1cc(-c2nn3cccnc3c2C(=O)N[C@H]2N=C(c3ccccc3)c3cccc(F)c3NC2=O)cn1
OUTPUT: 3.7

* * *

measurementNotes: Liver microsomal stability, dog
Assay type: in vitro ADME
measurementParameters: pooled liver microsomes, pH 7.4, 0.5 mg/mL protein, 1 μM compound, NADPH, read-out: Liver Microsomal Stability t1/2
Please provide measured half-life at 1 μM for the entries that follow.
Numbers only, in h.

These solved cases illustrate the format of a correct answer.
1. CC(C)(O)c1ccc(-c2nn3cccnc3c2C(=O)N[C@H]2N=C(c3ccccc3)c3cccc(F)c3NC2=O)c(F)c1 ... 1.22
2. O=C(N[C@H]1N=C(c2ccccc2)c2cccc(F)c2NC1=O)c1c(-c2cnn(CC(F)(F)F)c2)nn2cccnc12 ... 1.78
3. CC(C)n1cc(-c2nn3cccnc3c2C(=O)N[C@H]2N=C(c3ccccc3)c3cccc(F)c3NC2=O)cn1 ... 2.62

Hello, I would appreciate it if you could give half-life at 1 μM for each entry below.
1. CCn1cc(-c2nn3cccnc3c2C(=O)N[C@H]2N=C(c3ccccc3)c3cccc(F)c3NC2=O)cn1
2. O=C(N[C@H]1N=C(c2ccccc2)c2cccc(F)c2NC1=O)c1c(-c2cnn(C3CCOCC3)c2)nn2cccnc12
3. O=C(N[C@H]1N=C(c2ccccc2)c2cccc(F)c2NC1=O)c1c(-c2ccc(CO)cc2F)nn2cccnc12
4. O=C(N[C@H]1N=C(c2ccccc2)c2cccc(F)c2NC1=O)c1c(-c2cccc(CO)c2F)nn2cccnc12

OUTPUT:
1: 6.82; 2: 2.07; 3: 10.6; 4: 6.5

* * *

Please provide measured clearance for the entries that follow.
measurementNotes: In vivo pharmacokinetics in rats (IV and PO)
Parameters: species or system Male rats [Sprague Dawley (SD)]
measurementParameters: Sprague Dawley, plasma; male SD rat, study IV 1 mg/kg, PO 10 mg/kg
Answer by giving the amount and then stating its unit.

These solved cases illustrate the format of a correct answer.
1. CC(C)n1cc(-c2nn3cccnc3c2C(=O)N[C@H]2N=C(c3ccccc3)c3cccc(F)c3NC2=O)cn1 ... 1.9 mL/min/kg
2. CS(=O)(=O)c1ccc(-c2nn3cccnc3c2C(=O)N[C@H]2N=C(c3ccccc3)c3cccc(F)c3NC2=O)c(F)c1 ... 13.1 mL/min/kg

Now for the compound whose clearance we want.
INPUT: What value of clearance has been recorded for this entry: O=C(N[C@H]1N=C(c2ccccc2)c2cccc(F)c2NC1=O)c1c(-c2ccc(CO)cc2F)nn2cccnc12
OUTPUT: 11.5 mL/min/kg

Reference for the values: patent US20240173332A1
